# inhibition at 1 µM per entry
Measured target: CDK9/CyclinT (Homo sapiens, UniProt P50750)
Construct: purchased BPS Bioscience 79628
Sequence (P50750 whole entry): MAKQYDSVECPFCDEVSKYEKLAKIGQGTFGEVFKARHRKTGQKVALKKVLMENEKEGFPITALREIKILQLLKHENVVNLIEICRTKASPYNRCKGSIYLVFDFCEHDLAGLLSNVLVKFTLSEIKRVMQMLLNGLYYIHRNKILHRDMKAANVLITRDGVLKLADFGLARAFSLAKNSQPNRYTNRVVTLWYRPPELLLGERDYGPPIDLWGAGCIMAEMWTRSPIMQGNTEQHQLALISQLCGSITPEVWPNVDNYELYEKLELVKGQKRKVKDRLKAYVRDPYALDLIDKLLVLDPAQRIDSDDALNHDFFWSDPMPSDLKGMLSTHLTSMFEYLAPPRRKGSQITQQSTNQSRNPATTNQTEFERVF
Sequence (O60563 whole entry partner): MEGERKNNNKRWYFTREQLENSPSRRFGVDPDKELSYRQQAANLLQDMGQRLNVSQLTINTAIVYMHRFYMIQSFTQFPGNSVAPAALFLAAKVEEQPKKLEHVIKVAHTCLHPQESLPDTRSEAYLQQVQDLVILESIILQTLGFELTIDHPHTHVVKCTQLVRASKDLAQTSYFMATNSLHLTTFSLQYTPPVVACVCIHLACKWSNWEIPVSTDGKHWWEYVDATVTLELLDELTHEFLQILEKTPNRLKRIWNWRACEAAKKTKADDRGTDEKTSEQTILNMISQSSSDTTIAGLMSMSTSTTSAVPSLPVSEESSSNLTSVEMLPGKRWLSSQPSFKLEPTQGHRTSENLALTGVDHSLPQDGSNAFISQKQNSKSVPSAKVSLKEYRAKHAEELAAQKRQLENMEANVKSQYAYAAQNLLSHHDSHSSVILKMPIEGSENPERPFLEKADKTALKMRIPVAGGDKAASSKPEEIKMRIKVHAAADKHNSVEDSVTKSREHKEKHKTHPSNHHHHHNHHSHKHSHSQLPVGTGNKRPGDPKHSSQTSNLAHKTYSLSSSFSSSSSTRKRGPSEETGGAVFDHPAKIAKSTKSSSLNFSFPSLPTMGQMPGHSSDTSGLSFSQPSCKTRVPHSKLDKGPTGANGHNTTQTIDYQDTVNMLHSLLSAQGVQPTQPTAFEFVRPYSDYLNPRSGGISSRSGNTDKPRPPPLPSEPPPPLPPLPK
Measurement protocol: CDK9/CyclinT in vitro kinase activity, single concentration 1 μM
Assay type: biochemical
Run conditions: single concentration 1 μM
Param answer (str): number followed by unit.

Below, 5 molecules whose answers are already recorded.
>>> print(df.to_string())
                                   molecule                           measured_target  data_value
0  O=C(Cc1ccc(-c2ccncc2)cc1)Nc1ncc(SCc2cccnc2)s1 [UOM-005550]  CDK9/CyclinT (Homo sapiens, UniProt P50750)         64%
1  O=C(Cc1cnccn1)Nc1ncc(SCc2cccnc2)s1 [UOM-005482]  CDK9/CyclinT (Homo sapiens, UniProt P50750)         20%
2  O=C(CC1CCCC1)Nc1ncc(SCc2cccnc2)s1 [UOM-005225]  CDK9/CyclinT (Homo sapiens, UniProt P50750)         73%
3  O=C(Cc1ccc(NC(=O)c2ccncc2)cc1)Nc1ncc(SCc2cccnc2)s1 [UOM-005476]  CDK9/CyclinT (Homo sapiens, UniProt P50750)         66%
4  O=C(Cc1ccc(N2CCOCC2)cc1)Nc1ncc(SCc2cccnc2)s1 [UOM-005606]  CDK9/CyclinT (Homo sapiens, UniProt P50750)         65%

[in] Could you share what inhibition at 1 µM was measured for CN(C)c1ccc(CC(=O)Nc2nccs2)cc1 [UOM-005597] , tested on CDK9/CyclinT (Homo sapiens, UniProt P50750)?
[out] 0%

[in] What would you report for O=C(Cc1ccc(I)cc1)Nc1ncc(SCc2cccnc2)s1 [UOM-005200] ?
[out] 62%

###

# IC50 per entry
System: primary AML specimens
Measurement protocol: Dose-response assays in primary AML specimens (6 days, CellTiterGlo)
Format: cell-based, human
Run conditions: Homo sapiens, 144 h, primary AML specimen 10H107; 6 days; read-out: IC50
Number in nM, nothing else.

Below, 2 molecules whose answers are already recorded.
>>> df
                                  structure  endpoint  data_value
0  CN(C)C/C=C/C(=O)Nc1ccc(C(=O)N2CCC[C@@H](Nc3ncc(Cl)c(-c4c[nH]c5ccccc45)n3)C2)cc1      IC50         164
1  CN(C)c1ccc(CC(=O)Nc2ncc(SCc3cccnc3)s2)cc1      IC50        1560

Shifting focus to the molecule that follows.
[in] // returns reported IC50 for input "CC(C)(C)c1cnc(CSc2cnc(NC(=O)C3CCNCC3)s2)o1"
[out] 324

###

System: cyclin KeGFP
Measurement protocol: Cyclin KeGFP reporter system (eGFP/mCherry MFI by flow cytometry);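 further: 10 μM compound for 3 h relative to DMSO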
Assay type: cell-based, H. sapiens
Run conditions: cyclin K-eGFP reporter
# % degradation cyclin K-eGFP per entry
Number in %, nothing else.

>>> print(df.to_string())
                                   compound                     endpoint  data_value
0  O=C(Cc1ccc(CNC(=O)OCC2c3ccccc3-c3ccccc32)cc1)Nc1ncc(SCc2cccnc2)s1 [UOM-005432]  % degradation cyclin K-eGFP           5
1  CN(C)c1ccc(CC(=O)Nc2nc3c(s2)CCC3)cc1 [UOM-005599]  % degradation cyclin K-eGFP          13
2  O=C(Cc1ccc(N2CCOCC2)cc1)Nc1ncc(SCc2cccnc2)s1 [UOM-005606]  % degradation cyclin K-eGFP          45

Shifting focus to the compound that follows.
[in] // returns reported % degradation cyclin K-eGFP for input O=C(Cc1ccc(NC(=O)C23CC4CC(CC(C4)C2)C3)cc1)Nc1ncc(SCc2cccnc2)s1 [UOM-005477]
[out] 6

###

Measured target: CDK9/CyclinT (Homo sapiens, UniProt P50750)
Construct: purchased BPS Bioscience 79628
Measurement protocol: CDK9/CyclinT in vitro kinase activity, single concentration 1 μM
Type: biochemical
Run conditions: single concentration 1 μM
Endpoint: inhibition at 1 µM (%)
Number in %, nothing else.

Below, 3 compounds whose answers are already recorded.
>>> print(df.to_string())
                                   compound  data_value
0         O=C(Nc1ncc(SCc2cccnc2)s1)C1CCNCC1          71
1  O=C(Cc1ccc(NC(=O)c2ccccn2)cc1)Nc1ncc(SCc2cccnc2)s1          59
2  O=C(Cc1ccc(N2CCCC2)cc1)Nc1ncc(SCc2cccnc2)s1          54

[in] // returns reported inhibition at 1 µM for input CC(C)(C)OC(=O)N1CCC(CC(=O)Nc2ncc(SCc3cccnc3)s2)C1 (stereo not drawn)
[out] 39

[in] What would you report for "CN(C)c1ccc(CC(=O)Nc2ncc(SCc3cccnc3)s2)cc1" ?
[out] 59

[in] What would you report for "CN(C)c1ccc(CC(=O)Nc2nnc(SCc3cccnc3)s2)cc1" ?
[out] 0

[in] What would you report for Cl.Cl.O=C(CC1CCNC1)Nc1ncc(SCc2cccnc2)s1 (stereo not drawn) ?
[out] 64

[in] What would you report for "O=C(Cc1ccc(-c2ccccc2)cc1)Nc1ncc(SCc2cccnc2)s1" ?
[out] 67

###

Measured target: CDK9/CyclinT (Homo sapiens, UniProt P50750)
Construct: purchased BPS Bioscience 79628
Measurement protocol: CDK9/CyclinT in vitro kinase activity, single concentration 1 μM
Type: biochemical
Run conditions: single concentration 1 μM
Please enter rule met where inhibition at 1 µM is greater than or equal to 60%, and rule not met where it is lower.

Record excerpt, results attached:
>>> print(df.to_string())
                                   compound  label_value
0  C=C(C(=O)Nc1ncc(SCc2cccnc2)s1)c1ccc2c(c1)[nH]c1ccc(Cl)cc12 [UOM-005447]     rule met
1  CSc1ccc(CC(=O)Nc2ncc(SCc3cccnc3)s2)cc1 [UOM-005206]     rule met

Then there is this compound:
[in] Please indicate if the recorded inhibition at 1 µM for CC(=O)Nc1ccc(CC(=O)Nc2ncc(SCc3cccnc3)s2)cc1 [UOM-005473] meets or exceeds 60%.
[out] rule met

###

Measured target: CDK9/CyclinT (Homo sapiens, UniProt P50750)
Construct: purchased BPS Bioscience 79628
Measurement protocol: CDK9/CyclinT in vitro kinase activity, single concentration 1 μM
Format: biochemical
Run conditions: single concentration 1 μM
Endpoint: inhibition at 1 µM (%)
Number in %, nothing else.

[in] // returns reported inhibition at 1 µM for input Cc1nc(CC(=O)Nc2ncc(SCc3cccnc3)s2)c(C)s1 [UOM-005227]
[out] 53

[in] What would you report for CC(C)(C)c1cnc(CSc2cnc(NC(=O)C3CCNCC3)s2)o1 [SNS-032] ?
[out] 63

[in] What would you report for COc1ccc(CC(=O)Nc2ncc(SCc3cccnc3)s2)cc1 [UOM-005201] ?
[out] 54

###

# inhibition at 1 µM per entry
Measured target: CDK9/CyclinT (Homo sapiens)
Construct: purchased BPS Bioscience 79628
Measurement protocol: CDK9/CyclinT in vitro kinase activity, single concentration 1 μM
Assay type: biochemical
Run conditions: single concentration 1 μM
Number in %, nothing else.

Below, 4 compounds whose answers are already recorded.
>>> df
                                  structure  quantity_unit  data_value
0  Cn1cc(CC(=O)Nc2ncc(SCc3cccnc3)s2)c2ccccc21              %          51
1  Cn1cc(-n2cnc3c(NCc4nc5cc(Cl)c(Cl)cc5[nH]4)nc(N4CCOCC4)nc32)cn1              %           0
2     Cc1ccc(CC(=O)Nc2ncc(SCc3cccnc3)s2)cc1              %          50
3  O=C(Cc1ccc2ccccc2c1)Nc1ncc(SCc2cccnc2)s1              %          67

[in] // returns reported inhibition at 1 µM for input "O=C(Cc1ccccn1)Nc1ncc(SCc2cccnc2)s1"
[out] 15

[in] What would you report for "O=C(Cc1cc(F)ccc1Br)Nc1ncc(SCc2cccnc2)s1" ?
[out] 15

[in] What would you report for "O=C(Cc1cccnc1)Nc1ncc(SCc2cccnc2)s1" ?
[out] 100
